TARGET_SYSTEM: PKR(R510Q) (Homo sapiens, UniProt P30613, R510Q)
Sequence (P30613 whole entry R510Q): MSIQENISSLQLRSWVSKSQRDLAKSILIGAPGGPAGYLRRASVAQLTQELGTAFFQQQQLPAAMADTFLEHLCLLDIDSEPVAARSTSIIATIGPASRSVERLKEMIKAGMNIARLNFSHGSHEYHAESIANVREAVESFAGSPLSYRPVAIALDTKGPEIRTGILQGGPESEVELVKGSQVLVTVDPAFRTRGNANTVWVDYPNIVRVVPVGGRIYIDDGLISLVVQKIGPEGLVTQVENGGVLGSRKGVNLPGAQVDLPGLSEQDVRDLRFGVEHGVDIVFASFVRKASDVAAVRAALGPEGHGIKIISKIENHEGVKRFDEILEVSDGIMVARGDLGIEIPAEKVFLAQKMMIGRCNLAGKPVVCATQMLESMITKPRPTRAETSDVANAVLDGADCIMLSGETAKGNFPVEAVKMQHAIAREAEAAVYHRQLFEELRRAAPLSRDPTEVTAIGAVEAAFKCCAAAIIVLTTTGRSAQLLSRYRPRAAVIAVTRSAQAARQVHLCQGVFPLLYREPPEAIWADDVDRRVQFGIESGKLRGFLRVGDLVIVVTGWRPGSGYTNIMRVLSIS
METHOD_NOTES: Luminescence Biochemical Assay (Kinase Glo Plus), PKR R510Q mutant
MEASUREMENT_PARAMETERS: without FBP, read-out: AC50 LUM KGP woFBP AC50 μM gmean
Field: AC50. Provide a value for each of the compounds that follow.

Take a look at these entries with their results.
Report AC50 for O=C(Cc1ncccn1)N1CC2=C(C1)CN(S(=O)(=O)c1ccc(OC(F)F)cc1)C2 [Example 18-28] please.
1 to 40 µM

What do we get for O=C(C(O)c1cccc(F)c1)N1CC2=C(C1)CN(S(=O)(=O)c1ccc(OC(F)F)cc1)C2 (stereo not shown) [Example 18-22] ?
0.1 to 1 µM

What do we get for Cc1nc(S(=O)(=O)N2CC3=C(CN(C(=O)[C@H](C)c4ccccc4)C3)C2)cn1C [Example 19-3] ?
1 to 40 µM

# evaluate next
Report AC50 for O=C([C@H](O)c1ccccc1)N1CC2=C(C1)CN(S(=O)(=O)c1cccc(OC(F)F)c1)C2 [Example 18-15] please.
≤ 0.1 µM
